Data provenance: the supplement of paper PMC9254222

System: HEK293T (UBE3A T485A transfected, BAR Wnt reporter)
experimentalDetails: Wnt reporter firefly/Renilla luciferase ratio relative to plate median (fold (linear ratio)); higher = more Wnt/beta-catenin reporter activation
statedConditions: concentration: 0.1 uM; 24 h
In all, about 1,100 compounds were measured (“Wnt reporter firefly/Renilla luciferase ratio relative to plate median”: median about 1.1, highest 2% from about 1.6 on). The sample as a whole holds a higher share of the highest values than the screen did.
Items are presented alongside their recorded Wnt reporter firefly/Renilla luciferase ratio.
Provide a numeric answer; units are not to be included.

Example entries begin here.
O=C([O-])c1[nH]n(-c2ccc(S(=O)(=O)[O-])cc2)c(=O)c1/N=N/c1ccc(S(=O)(=O)[O-])cc1.[Na+].[Na+].[Na+]: 1.26
O=C(N[C@@H](c1ccccc1)[C@@H]1CCCCN1)c1cccc(C(F)(F)F)c1Cl: 0.912
CC[C@@H]1C[C@H](N(Cc2cc(C(F)(F)F)cc(C(F)(F)F)c2)C(C)=O)c2cc(C(F)(F)F)ccc2N1C(=O)OC(C)C: 0.973
CCCCCCCCCCCC[N+](C)(C)C.[Cl-] [Dodecyltrimethylammonium chloride]: 1.41
N#C[C@@H]1CC(F)(F)CN1C(=O)CNC1CC2CCC(C1)N2c1ncccn1 (stereo partly drawn): 0.985

Asked: # query: Wnt reporter firefly/Renilla luciferase ratio | item Oc1ccc(C(c2ccc(O)cc2)C(Cl)(Cl)Cl)cc1 [2,2-Bis(4-hydroxyphenyl)-1,1,1-trichloroethane] | system: HEK293T (UBE3A T485A transfected, BAR Wnt reporter)
Given back: 1.3

Asked: # query: Wnt reporter firefly/Renilla luciferase ratio | item CCCN(CCC)c1c([N+](=O)[O-])cc(C(F)(F)F)c(N)c1[N+](=O)[O-] | system: HEK293T (UBE3A T485A transfected, BAR Wnt reporter)
Given back: 1.47

Asked: # query: Wnt reporter firefly/Renilla luciferase ratio | item CN1CCC(c2c(O)cc(O)c3c(=O)cc(-c4ccccc4Cl)oc23)C(O)C1 (stereo not drawn) | system: HEK293T (UBE3A T485A transfected, BAR Wnt reporter)
Given back: 2
